# Tested on: F380Y/beta1
# protocol-description: modulators of BK channel variants, profiling panel, selectivity assay, cell-based, U2OS BacMam, thallium flux, beta subunits (AID 1259406);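 further: initial slope of Thallos dye fluorescence rise after thallium is added; log ratio against the mean of 0.3% DMSO vehicle wells on the same plate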
# run-conditions: at 30 µM
measurement-name: log fold change Tl+ flux
The answer should be a number; do not append a unit.

* COC(=O)Nc1nc2ccc(C(=O)c3ccccc3)cc2[nH]1 | 0.0198
* CCS(=O)(=O)CCn1c([N+](=O)[O-])cnc1C | 0.0365
* CCCCNC(=O)NS(=O)(=O)c1ccc(C)cc1 | 0.0157

Requested read-out: log fold change Tl+ flux. Entry: O=C1C(CCS(=O)c2ccccc2)C(=O)N(c2ccccc2)N1c1ccccc1 (stereo not given) 0.0248

# iterate: c1ccc2c(CC3=NCCN3)cccc2c1 0.0282

###

# protocol-description: stimulators of insulin release from INS-1E, primary screen, cell-based, 5 mM glucose, NPC library (AID 1117329); further: reference of the scale not given here
# run-conditions: rat INS-1E insulin secretion, at 10 µM, stronger effect = higher value
measurement-name: insulin secretion stimulation (%)
Record the value in %, omitting the unit from your answer.

Some entries whose results are on file:
- CC(C)C[C@H](NC(=O)CNC(=O)[C@H](Cc1ccc(O)cc1)NC(=O)[C@H](CO)NC(=O)[C@H](Cc1c[nH]c2ccccc12)NC(=O)[C@H](Cc1cnc[nH]1)NC(=O)[C@@H]1CCC(=O)N1)C(=O)N[C@@H](CCCN=C(N)N)C(=O)N1CCC[C@H]1C(=O)NCC(N)=O (stereo in doubt): -0.4
- Cc1ccc(-c2ccccc2C#N)cc1: 0.25
- N[C@H](C(=O)O)c1ccc(O)cc1: 5.2
- CCCc1ccc(C(=O)O)cc1: 0.6
- CCCCNc1cc(C(=O)O)cc(S(N)(=O)=O)c1Oc1ccccc1: -0.7
- C[C@H]1C[C@@H]2[C@H]([C@@H](O)C[C@@]3(C)[C@H]2CC[C@]3(O)C(=O)CO)[C@@]2(C)C=CC(=O)C=C12: 2.2
- C[C@H](CS)C(=O)N1CCC[C@H]1C(=O)O: -2.3
- COc1ccnc2c1CCCCC2S(=O)c1nc2ccccc2[nH]1 (configuration not stated): 1.6
- S=c1nc[nH]c2nc[nH]c12: 0.6
- CCOc1ccc2ccccc2c1C(=O)N[C@@H]1C(=O)N2[C@@H]1SC(C)(C)[C@@H]2C(=O)O: 0.3

// below: insulin secretion stimulation requested for another compound
Requested read-out: insulin secretion stimulation. Entry: COc1ccc(/C(C)=C/C(=O)O)c(OC)c1 -0.4

###

# Test system: Hepatitis C virus NS3 helicase
# protocol-description: HCV NS3 helicase inhibitors, primary screen, biochemical, fluorescence polarization, NIH Clinical Collection (AID 743270)
# run-conditions: NS3 helicase binding to Cy5-dT15 DNA, stronger effect = higher value, concentration not given here
Measured inhibition values are reported for all entries that follow.
Record the value in %, omitting the unit from your answer.

Some entries whose results are on file:
* CCC(=O)O[C@]1(C(=O)CCl)[C@@H](C)C[C@H]2[C@@H]3CCC4=CC(=O)C=C[C@]4(C)[C@@]3(F)[C@@H](O)C[C@@]21C | 4.09
* NC12CC3CC(CC(C3)C1)C2 | -0.45
* C[C@@H]1C[C@H]2[C@@H]3CCC4=CC(=O)C=C[C@]4(C)[C@@]3(F)[C@@H](O)C[C@]2(C)[C@@]1(O)C(=O)CO | -3.18
* NS(=O)(=O)c1cc2c(cc1Cl)NCNS2(=O)=O | -5
* CC(C)C(=O)Nc1ccc([N+](=O)[O-])c(C(F)(F)F)c1 | -1.36
* Cc1cn([C@H]2C[C@H](N=[N+]=[N-])[C@@H](CO)O2)c(=O)[nH]c1=O | -3.18

Requested read-out: inhibition. Entry: NS(=O)(=O)c1cc2c(cc1C(F)(F)F)NC(Cc1ccccc1)NS2(=O)=O (stereo unspecified) -0.45

# iterate: CCc1nc(N)nc(N)c1-c1ccc(Cl)cc1 -1.36

# iterate: CC(C)(C)NCC(O)c1cc(O)cc(O)c1 (stereo unspecified) -2.27

###

# protocol-description: stimulators of nuclear beta-catenin in C2C12, primary screen, imaging, WNT3A-conditioned medium, mouse C2C12, NPC library (AID 1117326); further: reference of the scale not given here
# run-conditions: at 10 µM
Calls of active or inactive are those of the source. Rule as the data show it: active = nuclear beta-catenin stimulation mostly above about 4.2% (no sharp cut-off); inactive = mostly below about 10%.
Write down the outcome that applies. Available outcomes: active, inactive

Solved entries (count: 3):
• CC(C[N+](C)(C)C)OC(N)=O (stereo not drawn) = inactive
• CC1=C(C(=O)O)N2C(=O)[C@@H](NC(=O)[C@H](N)c3ccccc3)[C@H]2SC1 = inactive
• CO/N=C(/C(=O)N[C@@H]1C(=O)N2C(C(=O)O)=C(Cn3nnc(C)n3)CS[C@H]12)c1csc(N)n1 = inactive

Status in this test for CCCCC(=O)OCC(=O)[C@H]1[C@H](C)C[C@H]2[C@@H]3C[C@H](F)C4=CC(=O)C=C[C@]4(C)[C@@]3(F)[C@@H](O)C[C@@]21C ? inactive

# iterate: Nc1c(I)cc(I)c(C(=O)N(CCC(=O)O)c2ccccc2)c1I inactive

# iterate: CC(C)(C)C(=O)NCCCC(=O)O inactive

# iterate: OCc1ccc(Cl)cc1Cl inactive

# iterate: CC(=O)OC(C)OC(=O)C(C)c1ccc(-c2ccccc2)c(F)c1 (stereo not drawn) inactive

###

# protocol-description: suppressors of polyglutamine aggregation in yeast, 75Q-TubH (AID 1616)
# run-conditions: S. cerevisiae 75Q-TubH polyglutamine aggregation suppression; stronger effect = higher value
Respond with True for aggregation suppression score values of 0.9 and above, False for values below.

Solved entries (count: 3):
- CCc1nc(N)nc(N)c1-c1ccc(Cl)cc1: True
- CC(C)[N+](C)(CCOC(=O)C1c2ccccc2Oc2ccccc21)C(C)C: True
- CCN(CC)CCCC(C)Nc1ccnc2cc(Cl)ccc12 (centres undefined): True

Please tell me: is the compound CC1=C(CC(=O)O)c2cc(F)ccc2/C1=C\c1ccc(S(C)=O)cc1 (centres undefined) at or over 0.9 in terms of aggregation suppression score? True

# iterate: c1ccc([C@H]2CN3CCSC3=N2)cc1 True

# iterate: COc1ccc(OC)c(C(O)CNC(=O)CN)c1 (centres undefined) True

# iterate: CCCN(CCC)S(=O)(=O)c1ccc(C(=O)O)cc1 False

# iterate: Cc1ccc(-c2cc(C(F)(F)F)nn2-c2ccc(S(N)(=O)=O)cc2)cc1 False

# iterate: Cc1ccc(Cl)c(Nc2ccccc2C(=O)O)c1Cl True

###

# protocol-description: glucagon-like peptide 1 release enhancers, primary assay, NCI-H716 cell line, NPC library (AID 1117341); further: reference of the scale not given here
# run-conditions: NCI-H716 cells, at 10 µM, stronger effect = higher value
measurement-name: GLP1 secretion stimulation (%)
Record the value in %, omitting the unit from your answer.

• C=C(CC)C(=O)c1ccc(OCC(=O)O)c(Cl)c1Cl = 3.1
• C/C(=N\O)c1ccc(OCC(=O)N2CCCCC2)cc1 = 0.1
• CC[C@@H]([C@H](C)O)n1ncn(-c2ccc(N3CCN(c4ccc(OC[C@@H]5CO[C@@](Cn6cncn6)(c6ccc(F)cc6F)C5)cc4)CC3)cc2)c1=O = 4.8

Requested read-out: GLP1 secretion stimulation. Entry: CCCCC[C@H](O)C=C[C@H]1[C@H](O)CC(=O)[C@H]1CC=CCCCC(=O)O 3.8

# iterate: CCCCCCCCOc1ccc(C(=O)c2ccccc2)c(O)c1 0.4

# iterate: Cc1cccc(N(C)C(=S)Oc2ccc3c(c2)C2CCC3C2)c1 (configuration not stated) -4.7

# iterate: C[C@H]1NCc2cc(-c3ccc4c(=O)c(C(=O)O)cn(C5CC5)c4c3OC(F)F)ccc21 -0.7

# iterate: O=C(O)Cc1cccc(-c2cc(CCCCCCc3ccc(O[C@H]4O[C@H](CO)[C@@H](O)[C@H](O)[C@@H]4O)c(-c4cccc(CC(=O)O)c4)c3)ccc2O[C@H]2O[C@H](CO)[C@@H](O)[C@H](O)[C@@H]2O)c1 9.5

###

# protocol-description: viability loss in pontine glioma line – cell-based, SU-DIPG-XXV, MIPE5.0, CellTiter-Glo, qHTS, dose response (AID 1347065);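 further: cells exposed to compound for 48 hours before ATP readout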
# run-conditions: CellTiter-Glo ATP luminescence
Results filed as inconclusive are left out. The source made the active and inactive calls. No cut-off is given here; in the data, nearly all actives have AC50 up to about 26 µM.
Write down the outcome that applies. Available outcomes: yes (1) = active, no (0) = inactive

• OCCN(CCO)c1nc(N2CCCCC2)c2nc(N(CCO)CCO)nc(N3CCCCC3)c2n1 = yes (1)
• NNC(=O)c1ccncc1 = no (0)
• Cc1c(OCC(F)(F)F)ccnc1CS(=O)c1nc2ccccc2[nH]1 (configuration not stated) = no (0)
• CN1CCN(CCCN2c3ccccc3Sc3ccc(C(F)(F)F)cc32)CC1 = yes (1)
• CC1=C(CC(=O)O)c2cc(F)ccc2/C1=C\c1ccc(S(C)=O)cc1 (configuration not stated) = no (0)
• O=C1[C@H](CC[C@H](O)c2ccc(F)cc2)[C@@H](c2ccc(O)cc2)N1c1ccc(F)cc1 = yes (1)
• Nc1nc2c(ncn2COCCO)c(=O)[nH]1 = no (0)
• N[C@@H](Cc1cc(I)c(Oc2cc(I)c(O)c(I)c2)c(I)c1)C(=O)O = no (0)
• O=C1NC(=O)C(c2c[nH]c3ccccc23)=C1c1c[nH]c2ccccc12 = yes (1)
• CN(CCOc1ccc(CC2SC(=O)NC2=O)cc1)c1ccccn1 (configuration not stated) = no (0)

Status in this test for CC(=O)CC(c1ccccc1)c1c(O)c2ccccc2oc1=O (configuration not stated) ? no (0)

# iterate: Nc1ncn([C@@H]2O[C@H](CO)[C@@H](O)[C@H]2O)c(=O)n1 yes (1)

# iterate: C[C@H]1C[C@@H]2[C@H]([C@@H](O)C[C@@]3(C)[C@H]2CC[C@]3(O)C(=O)CO)[C@@]2(C)C=CC(=O)C=C12 no (0)

# iterate: Cc1ccc(C)c(OCCCC(C)(C)C(=O)O)c1 no (0)

# iterate: CC(COc1ccccc1)N(CCCl)Cc1ccccc1 (configuration not stated) no (0)

This collection of values is drawn from PubChem BioAssay.
